Assay: gradient 5% acetonitrile 3 min, to 50% in 2 min, to 85% in 15 min, held 3 min, 100 µL/min
Settings: column: Zorbax Extend-C18 2.1 x 50 mm; eluents: water / acetonitrile, 0.1% formic acid
Threshold rule: RP-LC retention time greater than or equal to 700 s is Condition met; below that, Condition not met.

Some solved entries appear below for comparison.
compound=COc1cc(NC(=O)Cc2csc3nc(-c4ccc(Cl)cc4)cn23)cc(OC)c1OC category="Condition met"
compound="CC(C)(C)NC(=O)N1CC2CC1C(=O)O2 (centres undefined)" category="Condition not met"
compound="CC(C)CCNC(=O)CCSC1CCc2ccccc2NC1=O (centres undefined)" category="Condition met"
compound=CC(=O)N1CCc2sc(C(=O)NCc3cccc(Br)c3)cc2C1 category="Condition met"
compound="CN(C)C(=O)c1cc2c(s1)CCC(C(=O)N1CCN(c3ccccc3)CC1)C2 (centres undefined)" category="Condition met"

Here is the next item to consider.
Textbook exercise: given the entry Cc1cccc(OCc2nc(CCN(C)C(=O)NCc3ccco3)no2)c1 , state whether its RP-LC retention time is greater than or equal to 700 s.
Condition met
